These data points were gathered from patent US10287255B2.

# target or test system: human recombinant HDAC6 (Homo sapiens)
# Construct: purchased Calbiochem 382180
# Sequence (Q9UBN7 whole entry): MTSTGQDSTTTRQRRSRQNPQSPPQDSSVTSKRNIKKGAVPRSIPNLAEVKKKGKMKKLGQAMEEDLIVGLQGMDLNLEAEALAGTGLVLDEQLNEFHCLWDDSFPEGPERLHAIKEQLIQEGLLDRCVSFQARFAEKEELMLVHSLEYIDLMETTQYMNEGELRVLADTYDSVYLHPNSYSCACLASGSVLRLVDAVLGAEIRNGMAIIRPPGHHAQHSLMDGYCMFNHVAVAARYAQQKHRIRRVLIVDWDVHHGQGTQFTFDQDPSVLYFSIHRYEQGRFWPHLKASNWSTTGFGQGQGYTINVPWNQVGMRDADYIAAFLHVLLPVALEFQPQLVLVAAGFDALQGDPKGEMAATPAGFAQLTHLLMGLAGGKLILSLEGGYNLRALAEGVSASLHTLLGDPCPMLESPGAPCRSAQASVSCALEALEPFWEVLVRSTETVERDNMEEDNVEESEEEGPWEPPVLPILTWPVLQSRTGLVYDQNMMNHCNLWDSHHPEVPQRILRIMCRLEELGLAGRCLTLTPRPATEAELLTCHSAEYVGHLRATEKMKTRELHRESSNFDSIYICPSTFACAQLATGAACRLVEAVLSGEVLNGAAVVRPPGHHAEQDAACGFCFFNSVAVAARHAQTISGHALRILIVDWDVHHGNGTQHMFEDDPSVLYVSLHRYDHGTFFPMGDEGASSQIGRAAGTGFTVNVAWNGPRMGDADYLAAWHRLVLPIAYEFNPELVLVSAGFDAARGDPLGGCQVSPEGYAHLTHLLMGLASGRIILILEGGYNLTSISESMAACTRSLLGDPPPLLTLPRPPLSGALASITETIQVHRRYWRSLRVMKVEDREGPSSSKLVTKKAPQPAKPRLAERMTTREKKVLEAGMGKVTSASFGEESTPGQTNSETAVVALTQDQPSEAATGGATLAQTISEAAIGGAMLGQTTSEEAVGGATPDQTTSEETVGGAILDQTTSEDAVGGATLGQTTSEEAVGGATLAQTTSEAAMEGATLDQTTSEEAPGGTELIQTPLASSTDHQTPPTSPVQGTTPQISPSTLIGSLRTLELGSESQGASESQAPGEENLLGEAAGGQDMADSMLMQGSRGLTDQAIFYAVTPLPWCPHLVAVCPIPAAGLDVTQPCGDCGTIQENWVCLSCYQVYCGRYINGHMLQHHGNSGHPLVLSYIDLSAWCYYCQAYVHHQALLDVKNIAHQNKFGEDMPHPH
# protocol: HDAC6 enzyme activity inhibition assay (in vitro, fluorimetric)
# Type: biochemical
# condition parameters: HDAC6 selectivity over HDAC1
measurement name: HDAC6 selectivity (fold)

Value of HDAC6 selectivity (fold) reported for the compound CCN1[C@H](C)CN(Cc2ccc(C(=O)NO)cc2)C[C@@H]1C [Compound 147] is >90 fold

Value of HDAC6 selectivity (fold) reported for the compound C[C@@H]1CN(S(=O)(=O)c2cccnc2)C[C@H](C)N1Cc1ccc(C(=O)NO)cc1 [Compound 113] is 27 fold

Value of HDAC6 selectivity (fold) reported for the compound CC(c1ccc(C(=O)NO)cc1)N1C[C@@H](C)N(Cc2ccccc2)[C@@H](C)C1 (stereo partly shown) [Compound 219] is >59 fold

Value of HDAC6 selectivity (fold) reported for the compound C[C@@H]1CN(CCc2ccccc2)C[C@H](C)N1Cc1ccc(C(=O)NO)cc1 [Compound 183] is >20 fold
